B1: glmS ribozyme (parent)
chain: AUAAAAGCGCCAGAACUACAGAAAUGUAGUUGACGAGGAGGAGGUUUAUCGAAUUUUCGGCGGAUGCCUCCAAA

Variants of: B1
method: self-cleavage kobs at 40 uM GlcN6P; higher = faster cleavage; RNA array
condition_notes: with glucosamine-6-phosphate
Fewer inactive variants are shown than the library holds.
measured_property: self-cleavage kobs at 40 uM GlcN6P

variant_label	readout_value
G29C U30G	8.92e-05 s⁻¹
U45A A53G	0.002 s⁻¹
C11G G13U	< 1e-05 s⁻¹
C10G G51C C58A	< 1e-05 s⁻¹
A6C G7C	< 1e-05 s⁻¹
C16U G32U G40A C71G	< 1e-05 s⁻¹
A6C G9C C11U C34G G38A U55C G59A C67U	< 1e-05 s⁻¹
G13U G43A C50A C61U C68U	< 1e-05 s⁻¹
G26U C50G	4.71e-05 s⁻¹
C11U A48G A53G	< 1e-05 s⁻¹
G37U G43C	< 1e-05 s⁻¹
